B1: PTPN9 (parent)
chain: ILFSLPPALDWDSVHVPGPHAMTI

Variants of: B1
assay_explanation: protein stability index of a GFP-peptide fusion (GPS, HEK-293T) (PSI 1-6); higher = more stable;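 note: lentivirally expressed fusions sorted by FACS into six bins by GFP to DsRed ratio, PSI derived from sequencing read proportions per bin multiplied by bin number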
condition_details: c terminus: a fixed tail appended
property_name: protein stability index

seq: ILFSLPPALDWDSVTVPGPHAMTI [H15T]
endpoint_result: 2.94

seq: LLFSLPPALDWDSVHVPGPHAMTI [I1L]
endpoint_result: 1.85

seq: ILFSLPPALDWDSVHVPGPHAMSI [T23S]
endpoint_result: 2.4

seq: PLFSLPPALDWDSVHVPGPHAMTI [I1P]
endpoint_result: 1.93

seq: ILMSLPPALDWDSVHVPGPHAMTI [F3M]
endpoint_result: 1.21

seq: CLFSLPPALDWDSVHVPGPHAMTI [I1C]
endpoint_result: 1.64

seq: ILFSLPPALDWDSVFVPGPHAMTI [H15F]
endpoint_result: 2.99

seq: FLFSLPPALDWDSVHVPGPHAMTI [I1F]
endpoint_result: 1.76

seq: ILFSLPPALDWDSVHVIGPHAMTI [P17I]
endpoint_result: 2.67

seq: ILFSLPPALDWDSVHVPGPHAGTI [M22G]
endpoint_result: 1.67

seq: ILFSLPPALDWDSVYVPGPHAMTI [H15Y]
endpoint_result: 3.15

seq: ILFSLPPALDWDSVHVPIPHAMTI [G18I]
endpoint_result: 3.29

seq: ILFSLPPAFDWDSVHVPGPHAMTI [L9F]
endpoint_result: 2.33

seq: IPFSLPPALDWDSVHVPGPHAMTI [L2P]
endpoint_result: 1.93

seq: ILFRLPPALDWDSVHVPGPHAMTI [S4R]
endpoint_result: 2.6

seq: ILFSLPPALDWDSVEVPGPHAMTI [H15E]
endpoint_result: 2

seq: ILFSLPPAGDWDSVHVPGPHAMTI [L9G]
endpoint_result: 3.71

seq: ILFGLPPALDWDSVHVPGPHAMTI [S4G]
endpoint_result: 2.46

seq: ILFSLPPALDWDSVHIPGPHAMTI [V16I]
endpoint_result: 3.19

seq: ILFSLPPALDWDSVHVCGPHAMTI [P17C]
endpoint_result: 1.49

seq: ILFSLPPAADWDSVHVPGPHAMTI [L9A]
endpoint_result: 2.29

seq: ILFSLPPALDWDSVHVPCPHAMTI [G18C]
endpoint_result: 1.85

seq: ILFSLPPALDWDSVHVPGPHTMTI [A21T]
endpoint_result: 2.35

seq: ILFSLPPALDWDSVHVPGPHAMTG [I24G]
endpoint_result: 2.29

seq: IEFSLPPALDWDSVHVPGPHAMTI [L2E]
endpoint_result: 2.29

seq: ILTSLPPALDWDSVHVPGPHAMTI [F3T]
endpoint_result: 2.38

seq: ILFSLPPHLDWDSVHVPGPHAMTI [A8H]
endpoint_result: 2.5

seq: ILFSLPPALDWDSVHVPGPSAMTI [H20S]
endpoint_result: 2.48

seq: ILFNLPPALDWDSVHVPGPHAMTI [S4N]
endpoint_result: 2.5

seq: ILFSLMPALDWDSVHVPGPHAMTI [P6M]
endpoint_result: 1.89

seq: ILFSLPPADDWDSVHVPGPHAMTI [L9D]
endpoint_result: 1.83

seq: ILFSLPPALDWDSVHVAGPHAMTI [P17A]
endpoint_result: 2.78

seq: ILFILPPALDWDSVHVPGPHAMTI [S4I]
endpoint_result: 3.06

seq: ILFSLPPALDWDSVHVPGPHAMTW [I24W]
endpoint_result: 3.21

seq: ILFSLPPALDWASVHVPGPHAMTI [D12A]
endpoint_result: 3.66

seq: ILFSLPPALMWDSVHVPGPHAMTI [D10M]
endpoint_result: 3.42

seq: ILFSMPPALDWDSVHVPGPHAMTI [L5M]
endpoint_result: 2.3

seq: ILFSLPFALDWDSVHVPGPHAMTI [P7F]
endpoint_result: 3.57

seq: ILFSLPPALDWDSVHVPGPHAMTY [I24Y]
endpoint_result: 1.73

seq: ILFSLPPALDWDSVHVPGPHEMTI [A21E]
endpoint_result: 2.64

seq: ILFSLPPALDWDSGHVPGPHAMTI [V14G]
endpoint_result: 2.1

seq: ILFSLPPALDWDSVHVPGPHAMRI [T23R]
endpoint_result: 3.03

seq: SLFSLPPALDWDSVHVPGPHAMTI [I1S]
endpoint_result: 1.99

seq: ILFSLPEALDWDSVHVPGPHAMTI [P7E]
endpoint_result: 2.43

seq: ILFSLPPALDWDSVHVPGCHAMTI [P19C]
endpoint_result: 2.95

seq: ILFSLPPALDWDSVHVPGAHAMTI [P19A]
endpoint_result: 2.77

seq: ILFSLPPALDWDSVHVEGPHAMTI [P17E]
endpoint_result: 2.47

seq: ILFSLIPALDWDSVHVPGPHAMTI [P6I]
endpoint_result: 3.44

seq: ILFSLPPALDWDSVHVPGPHAMAI [T23A]
endpoint_result: 1.49

seq: ILFSLPPALDWDSVHVPGSHAMTI [P19S]
endpoint_result: 2.48

seq: ILFSLPPALDWDSVHSPGPHAMTI [V16S]
endpoint_result: 3.71

seq: ILFSLPPALDWDSVHVPGPHIMTI [A21I]
endpoint_result: 3.19

seq: ILFSLPPALDWDSVHVPGPHAMTV [I24V]
endpoint_result: 2.31

seq: ILFSLPPALEWDSVHVPGPHAMTI [D10E]
endpoint_result: 1.63

seq: GLFSLPPALDWDSVHVPGPHAMTI [I1G]
endpoint_result: 2.6

seq: ILFSLPPALDWDSVHVPGPHAMTQ [I24Q]
endpoint_result: 2.71

seq: ILFSLPPALDWDSRHVPGPHAMTI [V14R]
endpoint_result: 2.75

seq: ILFSLPPFLDWDSVHVPGPHAMTI [A8F]
endpoint_result: 3.41

seq: ILFSLPPALIWDSVHVPGPHAMTI [D10I]
endpoint_result: 2.2

seq: ILFSLPPALDWDSVHVPGPHAMCI [T23C]
endpoint_result: 3.21

seq: ILFSLPPALDWDSVHVPGPHQMTI [A21Q]
endpoint_result: 2.63

seq: ILFSLPPALDWDSVRVPGPHAMTI [H15R]
endpoint_result: 1.44

seq: ILFSWPPALDWDSVHVPGPHAMTI [L5W]
endpoint_result: 2
